# Target Or Test System: T1, Recombinant soluble E protein (0.8E-His) from DENV-4 (DENV-4, UniProt P09866 280-674)
# T1 construct: also called DENV-4 E protein; DV4
# Experiment Description: SPR, Biacore T200
Quantity Measured: binding result

DG_3CH1049-SG182/3CL012-SK1 (antibody, V domains shown) VH: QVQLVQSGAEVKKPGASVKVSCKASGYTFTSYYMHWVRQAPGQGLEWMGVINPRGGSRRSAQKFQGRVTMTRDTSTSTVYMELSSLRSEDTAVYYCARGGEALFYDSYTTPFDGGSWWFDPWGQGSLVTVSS VL: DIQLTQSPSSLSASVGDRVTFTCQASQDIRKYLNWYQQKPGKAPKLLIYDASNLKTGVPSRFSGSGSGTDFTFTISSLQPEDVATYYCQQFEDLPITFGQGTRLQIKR :: binds
DG_3CH1000-SG182/3CL633-SK1 (antibody, V domains shown) VH: QVQLVQSGPDVEKPGASVKVSCKASGYTFTSYYMHWVRQAPGQGLEWMGVINPRGGSRRSAQKFQGRITMTRDTSTSTVYMELSSLRSEDTAVYYCARGGRALFYDSYTTPFDGGSWWFDPWGQGSLVTVSS VL: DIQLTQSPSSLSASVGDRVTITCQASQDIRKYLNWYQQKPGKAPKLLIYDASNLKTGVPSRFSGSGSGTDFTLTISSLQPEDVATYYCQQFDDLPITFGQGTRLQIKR :: binds
DG_3CH989-SG182/3CL668-SK1 (antibody, V domains shown) VH: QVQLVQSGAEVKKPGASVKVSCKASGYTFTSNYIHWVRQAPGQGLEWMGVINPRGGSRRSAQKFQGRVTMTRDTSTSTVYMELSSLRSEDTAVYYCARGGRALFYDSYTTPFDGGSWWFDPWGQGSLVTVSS VL: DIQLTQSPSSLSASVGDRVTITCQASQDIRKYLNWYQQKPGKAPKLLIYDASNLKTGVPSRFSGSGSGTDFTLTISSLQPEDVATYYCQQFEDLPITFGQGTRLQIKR :: binds
